System: HCT116 human colorectal carcinoma cells
method_summary: MTT cytotoxicity assay on HCT116 cells
Type: cell-based
assay_context: Homo sapiens, HCT-116; HCT116, MTT, 72 h; value in brackets after the µg/mL value
value_kind: IC50 (nM)

C=C(C)C(=O)O[C@H]1CC2=C[C@H](C/C(C)=C/[C@H]3OC(=O)C(=C)[C@H]13)OC2=O [Isodeoxyelephantopin, isodeoxyelephantopin] :: 2560
C=C(C)C(=O)O[C@H]1CC2=C[C@@H](C/C(C)=C/[C@H]3OC(=O)C(=C)[C@H]13)OC2=O [Deoxyelephantopin, deoxyelephantopin] :: 2120
O=c1[nH]cc(F)c(=O)[nH]1 [5-Fluorouracil, 5-fluorouracil, reference compound] :: 5000
